These measurements were taken from patent US6525001B1.

Field: Plant response rating, Wild oats. Provide a value for each of the compounds that follow.
# System: wild oat (Avena fatua)
# assay.protocol: Test B pre-/postemergence
# Assay type: in vivo
# applied.conditions: Preemergence, Rate 62 g/ha; scale of 0 to 10
Output spec: single numeric token, no unit.

Task: Quote Plant response rating, Wild oats reported for Cc1cnc(-n2cnc(C(F)(F)F)c2)nc1C(=O)c1cccc(C(F)(F)F)c1 [Compound 61] please.
Output: 4

Task: Please supply the value of reported Plant response rating, Wild oats for the item O=C(c1cccc(C(F)(F)F)c1)c1ccnc(-c2ccc(F)cc2F)n1 [Compound 76]
Output: 0

Task: Answer with the recorded Plant response rating, Wild oats for the compound listed here: Cc1cnc(-n2cnc(C(F)(F)F)n2)nc1C(=O)c1cccc(OC(F)(F)F)c1 [Compound 64]
Output: 3

Task: // Input: Cc1cnc(-c2ccc(C(F)(F)F)cc2)nc1C(=O)c1cccc(OC(F)(F)F)c1 [Compound 75] . Output its Plant response rating, Wild oats only.
Output: 5

Task: Tell me measured Plant response rating, Wild oats for Cc1cnc(-n2ccc(C(F)(F)C(F)(F)F)n2)nc1C(=O)c1cccc(C(F)(F)F)c1 [Compound 68] please.
Output: 4

Task: Identify Plant response rating, Wild oats associated with the compound O=C(c1cccc(C(F)(F)F)c1)c1ccnc(-c2ccc(C(F)(F)F)cc2)n1 [Compound 77]
Output: 0

Task: Give Plant response rating, Wild oats for O=C(c1cccc(C(F)(F)F)c1)c1ccnc(-n2ccc(C(F)(F)F)n2)n1 [Compound 70]
Output: 0

Task: Note down Plant response rating, Wild oats recorded for Cc1cnc(-n2cnc(C(F)(F)F)c2)nc1C(=O)c1cccc(OC(F)(F)F)c1 [Compound 63]
Output: 3

Task: Write down Plant response rating, Wild oats measured for item Cc1cnc(-n2ccc(C(F)(F)F)n2)nc1C(=O)c1cccc(OC(F)(F)F)c1 [Compound 66]
Output: 2

Task: Could you please provide reported Plant response rating, Wild oats for Cc1cnc(-n2ccc(C(F)(F)C(F)(F)F)n2)nc1C(=O)c1cccc(OC(F)(F)F)c1 [Compound 62] ? Thanks!
Output: 1

###

# Tested on: surinam grass (Brachiaria decumbens)
# assay.protocol: Test C
# Type: in vivo
# applied.conditions: PREEMERGENCE, Rate 140 g/ha
Can you tell me Plant response rating, Surinam grass for the items I'm about to list?
Write no unit; give the number alone.

Task: Read off the recorded Plant response rating, Surinam grass for Cc1cnc(-n2ccc(C(F)(F)F)n2)nc1Cn1ccc(C(F)(F)F)n1
Output: 70

Task: Answer with reported Plant response rating, Surinam grass of Cc1cnc(-c2ccc(C(F)(F)F)cc2)nc1C(Cl)c1cccc(C(F)(F)F)c1 (racemic)
Output: 10

Task: Please list Plant response rating, Surinam grass recorded for the molecule Cc1cnc(-c2ccc(C(F)(F)F)cc2)nc1Cn1ccc(C(F)(F)F)n1
Output: 90

Task: Return value of Plant response rating, Surinam grass for input Cc1cnc(-n2ccc(C(F)(F)F)n2)nc1C(=O)c1cccc(OC(F)(F)F)c1 , no commentary.
Output: 20

###

# System: wheat (Triticum aestivum)
# assay.protocol: Test B pre-/postemergence
# Assay type: in vivo
# applied.conditions: Rate 500 g/ha, Postemergence
Label true when Plant response rating, Wheat is at or above 3; otherwise label false.

Task: Hi team, for Cc1cnc(-c2ccc(C(F)(F)F)cc2)nc1C(=O)c1ccc(C(F)(F)F)cc1 , is the recorded Plant response rating, Wheat at or above 3?
Output: false

Task: Form field: Plant response rating, Wheat at least 3? Entry: Cc1cnc(-c2ccc(C(F)(F)F)cc2)nc1Cn1ccc(C#N)n1
Output: false

Task: Given Cc1cnc(-c2ccccc2)nc1Cn1ccc(C(F)(F)F)n1 , state whether its Plant response rating, Wheat is at least 3.
Output: false

Task: Check this compound for Plant response rating, Wheat at or above 3: Cc1cnc(-c2ccc(C(F)(F)F)cc2)nc1C(=O)c1cccc(C(F)(F)F)c1
Output: true

Task: Item Cc1cnc(-n2ccc(C(F)(F)F)n2)nc1Cc1cccc(C(F)(F)F)c1 with Plant response rating, Wheat of 3 or above?
Output: true

Task: Textbook exercise: given the entry Cc1cnc(-c2ccc(C(F)(F)F)cc2)nc1Cc1cccc(C(F)(F)F)c1 , state whether its Plant response rating, Wheat is greater than or equal to 3.
Output: true

Task: # check: Plant response rating, Wheat of Cc1cnc(-n2cnc(C(F)(F)F)n2)nc1C(=O)c1cccc(C(F)(F)F)c1 is greater than or equal to 3
Output: true

Task: Would you say Cc1cnc(-c2ccc(C(F)(F)F)cc2)nc1Cn1nc(C(F)(F)F)cc1C shows Plant response rating, Wheat at minimum 3?
Output: true

Task: Record Cc1cnc(-n2cnc(C(F)(F)F)c2)nc1C(=O)c1cccc(C(F)(F)F)c1 ; criterion: Plant response rating, Wheat no lower than 3. Met?
Output: true

Task: Quick check, Plant response rating, Wheat >= 3? Cc1cnc(-c2ccc(C(F)(F)F)cc2)nc1Cn1cc(I)cn1
Output: true
